Target: Cellular tumor antigen p53 (Homo sapiens) (UniProt P04637)
Sequence (P04637 whole entry, looked up): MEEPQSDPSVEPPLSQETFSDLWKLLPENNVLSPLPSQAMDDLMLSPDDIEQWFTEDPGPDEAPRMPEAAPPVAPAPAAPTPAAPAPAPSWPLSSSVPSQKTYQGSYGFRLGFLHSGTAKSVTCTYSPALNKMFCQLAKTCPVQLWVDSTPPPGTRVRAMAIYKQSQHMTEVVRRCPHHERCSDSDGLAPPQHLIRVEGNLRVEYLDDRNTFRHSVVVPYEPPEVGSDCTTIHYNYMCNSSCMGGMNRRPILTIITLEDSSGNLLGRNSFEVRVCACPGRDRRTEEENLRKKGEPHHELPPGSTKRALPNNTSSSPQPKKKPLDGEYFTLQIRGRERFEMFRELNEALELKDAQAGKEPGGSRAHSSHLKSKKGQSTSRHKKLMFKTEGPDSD
Experiment: TOX21_p53_BLA_p3_ratio: Tox21 HCT-116 p53 Agonism Beta-lactamase Assay, Ratio, Phase 3 (AID 2283596)
Results filed as inconclusive are left out. The source made the active and inactive calls. The calls were made as follows: active = hit-call score of the fitted dose curve at least 0.9, where 1 is the maximum; inconclusive = response in the unintended direction; inactive = score below 0.9.
quantityMeasured: AC50

# count of solved cases: 4
[Q] Input `NC(=S)NNC(N)=S` , output reported AC50.
[A] inactive

[Q] Input `Cc1cc(=O)oc2cc(N(C)C)ccc12` , output reported AC50.
[A] 50.6 µM (active)

[Q] Input `IC(I)I` , output reported AC50.
[A] inactive

[Q] Input `Cc1ccc(S(=O)(=O)Oc2ccc(N=Nc3ccc(-c4ccc(N=Nc5c(O)ccc6cc(S(=O)(=O)O)cc(S(=O)(=O)O)c56)c(C)c4)cc3C)cc2)cc1` , output reported AC50.
[A] inactive

For each entry beneath this line, provide reported AC50.
1. CN(C)C(=O)Nc1ccc(Oc2ccc(Cl)cc2)cc1
2. CC1(C)O[C@@H]2[C@@H](CO[C@@]3(COS(N)(=O)=O)OC(C)(C)O[C@@H]23)O1
3. CN1C(=O)c2ccccc2C1=O
4. COC(C)(C)CC(C)=O
5. OCCc1ccccc1

[A]
["inactive", "inactive", "inactive", "inactive", "inactive"]

====

Biological target: Nucleoli Translocation, AR (gene 367)
Test: UPITT_HCI_U2OS_AR_TIF2_Nucleoli_Agonist: University of Pittsburgh U2OS Androgen Receptor-Transcriptional Intermediary Factor 2 (AR-TIF2) Agonism High Content Imaging Assay for Nucleoli Translocation (AID 2283998)
Records with an inconclusive call do not appear. Activity calls are given as the source filed them. The calls were made as follows: active = hit-call score of the fitted dose curve at least 0.9, where 1 is the maximum; inconclusive = response in the unintended direction; inactive = score below 0.9.
quantityMeasured: AC50

[Q] Input `Cc1ccc(S(=O)(=O)Oc2ccc(N=Nc3ccc(-c4ccc(N=Nc5c(O)ccc6cc(S(=O)(=O)O)cc(S(=O)(=O)O)c56)c(C)c4)cc3C)cc2)cc1` , output reported AC50.
[A] inactive

[Q] Input CCCCCCCCCCCCCC(=O)OCC(O)CO (stereo not drawn) , output reported AC50.
[A] inactive

[Q] Input CC(=O)C1(C)CC2=C(CCCC2(C)C)CC1C (stereo not drawn) , output reported AC50.
[A] inactive

[Q] Input `CCCCCCCCC=CCCCCCCCC1=NCCN1CCO` , output reported AC50.
[A] 13.3 µM (active)

[Q] Input `CCOC(=O)[C@@H](C)Oc1ccc(Oc2nc3ccc(Cl)cc3o2)cc1` , output reported AC50.
[A] inactive

[Q] Input `CCCCCCCCSCCO` , output reported AC50.
[A] inactive

[Q] Input `Nc1ccc(N)c2c1C(=O)c1ccccc1C2=O` , output reported AC50.
[A] inactive

Now for another entry.
[Q] Input `CCc1cc(Cc2cc(CC)cc(C(C)(C)C)c2O)c(O)c(C(C)(C)C)c1` , output reported AC50.
[A] 77.1 µM (active)

====

Target: Retinoic acid receptor RXR-alpha (Homo sapiens)
Test: OT_NURR1_NURR1RXRa_1440: Odyssey Thera (OT) 24-hour HEK293T Protein Complementation Assay for Nurr1/retinoid X receptor (RXR) (AID 2283386)
Inconclusive results are not listed. Activity calls are given as the source filed them. How the source made its calls: active means hit-call score of the fitted dose curve at least 0.9, where 1 is the maximum; inconclusive means response in the unintended direction; inactive means score below 0.9.
Assign a class; possible classes are active, inactive

# example entries with known answers
[Q] Write down the call the test reported for this molecule. Item: `CCCOCCO`
[A] inactive

[Q] Write down the call the test reported for this molecule. Item: `CCCCCC(C)=O`
[A] inactive

[Q] Write down the call the test reported for this molecule. Item: `Cc1ccc(S(=O)(=O)Oc2ccc(N=Nc3ccc(-c4ccc(N=Nc5c(O)ccc6cc(S(=O)(=O)O)cc(S(=O)(=O)O)c56)c(C)c4)cc3C)cc2)cc1`
[A] inactive

[Q] Write down the call the test reported for this molecule. Item: `CCCCCC(=O)CC`
[A] inactive

[Q] Write down the call the test reported for this molecule. Item: `O=C(O)c1ccc(O)cc1`
[A] inactive

[Q] Write down the call the test reported for this molecule. Item: `OCCc1ccccc1`
[A] inactive

Others:
[Q] Write down the call the test reported for this molecule. Item: `CCOc1ccc(N=Nc2ccc(C=Cc3ccc(N=Nc4ccc(OCC)cc4)cc3S(=O)(=O)O)c(S(=O)(=O)O)c2)cc1`
[A] inactive

[Q] Write down the call the test reported for this molecule. Item: `C=C1C[C@]23C[C@@]1(O)CC[C@H]2[C@@]12C=C[C@H](O)[C@@](C)(C(=O)O1)[C@H]2[C@@H]3C(=O)O`
[A] inactive

[Q] Write down the call the test reported for this molecule. Item: OCC(O)c1ccccc1 (stereo not given)
[A] inactive

[Q] Write down the call the test reported for this molecule. Item: `O=C(CC(=O)c1ccccc1)c1ccccc1`
[A] active
